assayed.target: GSPT1 (Homo sapiens, UniProt P15170+Q96SW2)
Construct: CAL-51 cells were purchased from DSMZ (cat. Number ACC302); endogenous in cells; host or cells: CAL-51 (DSMZ ACC302)
Sequence (P15170 whole entry): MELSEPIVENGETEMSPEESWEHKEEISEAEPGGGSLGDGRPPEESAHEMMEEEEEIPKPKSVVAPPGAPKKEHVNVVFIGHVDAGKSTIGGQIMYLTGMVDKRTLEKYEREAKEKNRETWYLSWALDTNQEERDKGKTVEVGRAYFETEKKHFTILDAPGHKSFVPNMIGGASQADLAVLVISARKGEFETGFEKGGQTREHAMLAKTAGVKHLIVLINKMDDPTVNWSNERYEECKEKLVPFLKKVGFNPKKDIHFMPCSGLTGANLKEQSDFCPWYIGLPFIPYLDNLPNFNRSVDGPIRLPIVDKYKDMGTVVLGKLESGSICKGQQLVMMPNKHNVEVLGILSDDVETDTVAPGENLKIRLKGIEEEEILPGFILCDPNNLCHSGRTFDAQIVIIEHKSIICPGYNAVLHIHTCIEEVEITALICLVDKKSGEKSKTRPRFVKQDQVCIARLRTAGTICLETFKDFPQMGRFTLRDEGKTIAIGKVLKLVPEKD
Sequence (Q96SW2 whole entry): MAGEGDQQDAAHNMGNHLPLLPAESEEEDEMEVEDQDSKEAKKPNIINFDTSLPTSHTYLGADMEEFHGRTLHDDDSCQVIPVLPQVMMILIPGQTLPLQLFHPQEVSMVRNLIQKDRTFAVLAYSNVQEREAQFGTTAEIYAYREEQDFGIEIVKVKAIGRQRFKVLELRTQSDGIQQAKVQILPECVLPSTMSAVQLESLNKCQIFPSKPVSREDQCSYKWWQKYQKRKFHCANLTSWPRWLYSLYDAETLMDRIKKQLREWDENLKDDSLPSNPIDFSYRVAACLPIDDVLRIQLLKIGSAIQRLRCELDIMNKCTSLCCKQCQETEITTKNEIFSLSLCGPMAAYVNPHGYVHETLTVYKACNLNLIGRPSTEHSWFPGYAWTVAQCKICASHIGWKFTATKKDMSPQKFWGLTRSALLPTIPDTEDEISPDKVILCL
Sequence (Q16531 2-1140 partner limits assumed): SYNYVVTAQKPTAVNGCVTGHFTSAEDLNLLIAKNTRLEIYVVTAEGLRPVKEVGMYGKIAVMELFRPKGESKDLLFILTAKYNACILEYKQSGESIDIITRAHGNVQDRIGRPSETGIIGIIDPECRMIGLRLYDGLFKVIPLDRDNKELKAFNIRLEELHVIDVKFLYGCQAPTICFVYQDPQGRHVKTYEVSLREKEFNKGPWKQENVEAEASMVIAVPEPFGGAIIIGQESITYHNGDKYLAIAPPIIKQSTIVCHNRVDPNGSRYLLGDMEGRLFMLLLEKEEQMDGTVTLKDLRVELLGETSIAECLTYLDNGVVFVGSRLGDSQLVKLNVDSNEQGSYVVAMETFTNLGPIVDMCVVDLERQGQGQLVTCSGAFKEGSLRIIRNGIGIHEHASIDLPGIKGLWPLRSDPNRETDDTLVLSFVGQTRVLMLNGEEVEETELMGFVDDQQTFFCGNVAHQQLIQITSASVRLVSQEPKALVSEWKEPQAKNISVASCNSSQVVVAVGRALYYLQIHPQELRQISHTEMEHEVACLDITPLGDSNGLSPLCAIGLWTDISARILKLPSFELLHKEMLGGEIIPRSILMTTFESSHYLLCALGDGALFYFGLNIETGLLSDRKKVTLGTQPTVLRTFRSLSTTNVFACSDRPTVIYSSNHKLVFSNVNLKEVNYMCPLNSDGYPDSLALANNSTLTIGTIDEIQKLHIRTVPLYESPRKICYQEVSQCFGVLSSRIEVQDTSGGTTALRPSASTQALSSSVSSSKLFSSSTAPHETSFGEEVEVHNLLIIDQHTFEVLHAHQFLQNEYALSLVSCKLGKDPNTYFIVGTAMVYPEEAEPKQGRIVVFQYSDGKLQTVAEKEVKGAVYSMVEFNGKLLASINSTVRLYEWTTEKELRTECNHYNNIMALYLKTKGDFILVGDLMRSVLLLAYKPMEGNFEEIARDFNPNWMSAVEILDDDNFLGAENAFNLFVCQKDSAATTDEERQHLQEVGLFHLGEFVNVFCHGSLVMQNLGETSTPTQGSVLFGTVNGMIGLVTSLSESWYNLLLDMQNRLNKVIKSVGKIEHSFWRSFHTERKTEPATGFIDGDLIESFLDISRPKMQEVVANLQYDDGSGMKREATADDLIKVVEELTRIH
assay.overview: Immunofluorescence assay for GSPT1 degradation in CAL-51 cells
Type: cell-based
cond: 6 h treatment, read-out: IF Class (GSPT1 degradation, DC50)
Hi there, I'd appreciate the recorded DC50 for every entry that follows.

GSPT1 (Homo sapiens, UniProt P15170+Q96SW2) assay, compound CC(C)(C)C12CC(C(=O)NC3CN(c4cc(F)c(C5CCC(=O)NC5=O)c(F)c4)C3)(C1)C2 (centres unmarked) [Compound 23] , recorded DC50 = > 300 nM

Per the reported GSPT1 (Homo sapiens, UniProt P15170+Q96SW2) data, Cc1cc(F)c(NC(=O)CC2CN(c3cc(F)c(C4CCC(=O)NC4=O)c(F)c3)C2)cc1Cl (centres unmarked) [Compound 5] has DC50 of < 30 nM

Entry O=C1CCC(c2c(F)cc(N3CC(NC(=O)Cc4ccc(Cl)cc4)C3)cc2F)C(=O)N1 (centres unmarked) [Compound 36] , tested on GSPT1 (Homo sapiens, UniProt P15170+Q96SW2), has a reported DC50 of > 300 nM

Tested on GSPT1 (Homo sapiens, UniProt P15170+Q96SW2), the item COc1cc(Cl)ccc1CC(=O)NC1CN(c2cc(F)c(C3CCC(=O)NC3=O)c(F)c2)C1 (centres unmarked) [Compound 27] showed DC50 equal to 30 to 300 nM

Simply: Cc1cc(C)nc(CC(=O)NC2CN(c3cc(F)c(C4CCC(=O)NC4=O)c(F)c3)C2)c1 (centres unmarked) [Compound 51] , GSPT1 (Homo sapiens, UniProt P15170+Q96SW2), DC50 = > 300 nM
